# experimental protocol: in vitro
# test context: rat, gh3-tre-luc cells, AC50 (uM) modified / 1000
Counter-ions that a name gives are not always drawn.
endpoint: CC50 at 24 h

Guide cases for CC50 at 24 h, answers given:
compound: CCCCNc1cc(C(=O)O)cc(S(N)(=O)=O)c1Oc1ccccc1 [Bumetanide]
CC50 at 24 h: > 20 µM
--
compound: O=S(=O)(O)c1ccc(O)cc1 [Sodium 4-hydroxybenzenesulfonate]
CC50 at 24 h: > 90 µM
--
compound: CCOC(=O)c1c(C)n(C)c2ccc(O)cc12 [Mecarbinate]
CC50 at 24 h: > 50 µM

Asked: Any idea what CC50 at 24 h was measured for "CC(C)(O)C(Cl)(Cl)Cl" ?
Given back: > 50 µM

Asked: # get_value(readout='CC50 at 24 h', item= CCC(=O)Oc1ccc(/C(CC)=C(\CC)c2ccc(OC(=O)CC)cc2)cc1 [Diethylstilbestrol dipropionate] )
Given back: > 90 µM

Asked: // CC50 at 24 h lookup, key: "C=CC(C)(C)C"
Given back: > 90 µM

Asked: Look at this compound and give its reported CC50 at 24 h. CC1COc2ccccc2N1 (centres unmarked) [3-Methyl-3,4-dihydro-2H-1,4-benzoxazine]
Given back: > 90 µM

Asked: Entry "CCCCCC1=CCCC1=O" has what CC50 at 24 h?
Given back: > 90 µM

Asked: If you can, please state the reported CC50 at 24 h value of Cn1ccc2cc3c(cc21)CCN3C(=O)Nc1cccnc1 [SB 206553 hydrochloride] .
Given back: > 50 µM

Asked: So what does the record say about CC50 at 24 h for "C=CC(=O)OCCOCC(CC)(COCCOC(=O)C=C)COCCOC(=O)C=C" ?
Given back: 23.1 µM

Asked: Field request: CC50 at 24 h | item: "COc1cc(/C=C2\CCC/C(=C\c3ccc(O)c(OC)c3)C2=O)ccc1O"
Given back: 7.98 µM

Asked: Given the entry CC(=O)OCCCc1ccccc1 [3-Phenylpropyl acetate] , report its measured CC50 at 24 h.
Given back: > 90 µM

Asked: Entry "N#Cc1cscn1" : reported CC50 at 24 h = ?
Given back: > 90 µM

Asked: Consider the compound "C1CCN2C[C@@H]3C[C@@H](CN4CCCC[C@@H]34)[C@H]2C1" and give its measured CC50 at 24 h.
Given back: > 20 µM

Asked: Can you look up the measured CC50 at 24 h of "N#C[C@@H]1C[C@@H]2C[C@@H]2N1C(=O)[C@@H](N)C12CC3CC(CC(O)(C3)C1)C2" for me?
Given back: > 50 µM

Asked: Consider the compound CN(C/C=C/c1ccccc1)Cc1cccc2ccccc12 [Naftifine hydrochloride] and give its measured CC50 at 24 h.
Given back: 25 µM

Asked: Please look up its CC50 at 24 h: "NNC(=O)c1cccc(C(=O)NN)c1"
Given back: > 90 µM

Asked: GET /values?readout=CC50 at 24 h&item= "CC1=CC(=O)CCC1"
Given back: > 90 µM

Asked: Quick check: CC50 at 24 h of "CCCCCc1ccc(Cl)cc1" ?
Given back: > 90 µM

Asked: Would you mind telling me what CC50 at 24 h value was observed for "CNCC(=O)c1ccc(O)c(O)c1" ?
Given back: > 50 µM
